- Test system: Influenza A virus
- experimental.details: Anti-viral activity against Influenza A (H1N1) infected in MDCK cells by MTS assay
- Format: functional, organism-based
- conditions.used: H
assay.readout: EC50 (µM)

>>> recorded_value("NC(=O)c1nc(F)cnc1O")
5.87

----------
- experimental.details: Drug metabolism in African green monkey assessed as Cmax of (2R,3S,4R,5S)-5-(4-aminopyrrolo[2,1-f][1,2,4]triazin-7-yl)-3,4-dihydroxy-2-(hydroxymethyl)tetrahydrofuran-2-carbonitrile metabolite at lung-deposited dose of 5.9 mg/kg, IT measured after 24 hrs by LC-MS/MS analysis
- Format: ADME, organism-based
- conditions.used: chlorocebus aethiops, in vivo, other
assay.readout: Cmax (nM)

>>> recorded_value("COC(=O)[C@H](C)N[P@](=O)(OC[C@@]1(C#N)O[C@@H](c2ccc3c(N)ncnn23)[C@H](OC(=O)C(C)C)[C@@H]1OC(=O)C(C)C)Oc1ccccc1")
220

----------
- experimental.details: Half life in Cynomolgous monkey at lung-deposited dose of 4 mg/kg, IT measured after 24 hrs by LC-MS/MS analysis
- Type: ADME, organism-based, Macaca fascicularis
- conditions.used: cynomolgus monkey, in vivo
assay.readout: half-life

>>> recorded_value("COC(=O)[C@H](C)N[P@](=O)(OC[C@@]1(C#N)O[C@@H](c2ccc3c(N)ncnn23)[C@H](OC(=O)C(C)C)[C@@H]1OC(=O)C(C)C)Oc1ccccc1")
"13 h"

----------
- system.under.test: DNA-directed RNA polymerase, mitochondrial (Homo sapiens, UniProt O00411)
- Sequence (O00411 whole entry): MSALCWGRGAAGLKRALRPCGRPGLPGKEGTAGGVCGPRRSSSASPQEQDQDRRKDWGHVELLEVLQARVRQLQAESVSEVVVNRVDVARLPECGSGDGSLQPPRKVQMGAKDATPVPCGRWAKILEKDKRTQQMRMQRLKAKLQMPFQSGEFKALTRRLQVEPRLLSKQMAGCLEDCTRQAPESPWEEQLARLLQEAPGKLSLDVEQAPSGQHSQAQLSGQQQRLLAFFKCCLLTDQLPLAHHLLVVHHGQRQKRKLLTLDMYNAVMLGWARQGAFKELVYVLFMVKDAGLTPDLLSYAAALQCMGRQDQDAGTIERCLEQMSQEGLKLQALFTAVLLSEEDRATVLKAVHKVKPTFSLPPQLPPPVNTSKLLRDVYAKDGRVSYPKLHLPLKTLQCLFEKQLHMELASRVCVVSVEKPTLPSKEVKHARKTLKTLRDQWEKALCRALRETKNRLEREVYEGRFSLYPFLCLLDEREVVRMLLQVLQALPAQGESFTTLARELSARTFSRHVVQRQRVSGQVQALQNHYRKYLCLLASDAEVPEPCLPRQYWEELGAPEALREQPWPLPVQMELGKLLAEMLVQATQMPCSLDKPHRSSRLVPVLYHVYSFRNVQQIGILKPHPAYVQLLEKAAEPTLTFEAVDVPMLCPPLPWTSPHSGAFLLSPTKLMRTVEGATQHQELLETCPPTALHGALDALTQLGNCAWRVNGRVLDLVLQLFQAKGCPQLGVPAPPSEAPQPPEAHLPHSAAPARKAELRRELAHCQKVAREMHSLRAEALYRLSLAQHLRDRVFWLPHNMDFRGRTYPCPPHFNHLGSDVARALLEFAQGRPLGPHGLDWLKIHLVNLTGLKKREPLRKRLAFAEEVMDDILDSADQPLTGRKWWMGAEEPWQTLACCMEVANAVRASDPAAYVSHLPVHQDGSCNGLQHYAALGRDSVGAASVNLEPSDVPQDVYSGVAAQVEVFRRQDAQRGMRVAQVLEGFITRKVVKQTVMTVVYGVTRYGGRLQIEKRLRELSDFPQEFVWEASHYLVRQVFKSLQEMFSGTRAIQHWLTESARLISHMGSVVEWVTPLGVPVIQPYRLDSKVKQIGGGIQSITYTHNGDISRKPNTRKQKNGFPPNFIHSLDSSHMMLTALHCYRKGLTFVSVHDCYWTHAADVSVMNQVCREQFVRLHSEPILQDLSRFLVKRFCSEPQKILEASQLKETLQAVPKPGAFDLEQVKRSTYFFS
- experimental.details: Inhibition of recombinant human POLRMT assessed as single-nucleotide incorporation rate at 500 uM measured for 60 mins in presence of ATP by imaging analysis relative to control
- Set-up: scale not given: the % may be the effect or the level left
Label Satisfied for high-side Activity (at or above 0.8%) and Not satisfied for low-side Activity (below it).

>>> class_label("Nc1ncnn2c([C@@H]3O[C@](CCl)(COP(=O)(O)OP(=O)(O)OP(=O)(O)O)[C@@H](O)[C@H]3O)ccc12")
"Not satisfied"
>>> class_label("C[C@]1(COP(=O)(O)OP(=O)(O)OP(=O)(O)O)O[C@@H](c2ccc3c(N)ncnn23)[C@H](O)[C@@H]1O")
"Satisfied"
>>> class_label("C=C[C@]1(COP(=O)(O)OP(=O)(O)OP(=O)(O)O)O[C@@H](c2ccc3c(N)ncnn23)[C@H](O)[C@@H]1O")
"Satisfied"
>>> class_label("N#C[C@]1(COP(=O)(O)OP(=O)(O)OP(=O)(O)O)O[C@@H](c2ccc3c(N)ncnn23)[C@H](F)[C@@H]1O")
"Not satisfied"
>>> class_label("[N-]=[N+]=N[C@]1(COP(=O)(O)OP(=O)(O)OP(=O)(O)O)O[C@@H](c2ccc3c(N)ncnn23)[C@H](O)[C@@H]1O")
"Satisfied"

----------
- experimental.details: Cytotoxicity against rhesus monkey LLC-MK2 cells incubated for 5 days by MTS assay
- Format: toxicity, cell-based, Macaca mulatta
- conditions.used: time 5 day
assay.readout: CC50 at 120 h

>>> recorded_value("COC(=O)[C@H](C)N[P@](=O)(OC[C@@]1(C#N)O[C@@H](c2ccc3c(N)ncnn23)[C@H](OC(=O)C(C)C)[C@@H]1OC(=O)C(C)C)Oc1ccccc1")
"> 2000 nM"

----------
- experimental.details: Prodrug conversion in human H1-HeLa cells assessed as ((2R,3S,4R,5S)-5-(4-aminopyrrolo[2,1-f][1,2,4]triazin-7-yl)-2-cyano-3,4-dihydroxytetrahydrofuran-2-yl)methyl tetrahydrogen triphosphate formation measured per million cells at 0.2 uM measured after 48 hrs by LC-MS/MS analysis
- Assay type: ADME, cell-based
assay.readout: amount per cells (pmol/10^6 cells)

>>> recorded_value("COC(=O)[C@H](C)N[P@](=O)(OC[C@@]1(C#N)O[C@@H](c2ccc3c(N)ncnn23)[C@H](OC(=O)C(C)C)[C@@H]1OC(=O)C(C)C)Oc1ccccc1")
0.84
